Give binding signal for every item shown.
- System tested: GST-Ap-NF-kB RHD (Exaiptasia pallida (Aiptasia), UniProt A0A913YAJ5 2-422)
- Sequence: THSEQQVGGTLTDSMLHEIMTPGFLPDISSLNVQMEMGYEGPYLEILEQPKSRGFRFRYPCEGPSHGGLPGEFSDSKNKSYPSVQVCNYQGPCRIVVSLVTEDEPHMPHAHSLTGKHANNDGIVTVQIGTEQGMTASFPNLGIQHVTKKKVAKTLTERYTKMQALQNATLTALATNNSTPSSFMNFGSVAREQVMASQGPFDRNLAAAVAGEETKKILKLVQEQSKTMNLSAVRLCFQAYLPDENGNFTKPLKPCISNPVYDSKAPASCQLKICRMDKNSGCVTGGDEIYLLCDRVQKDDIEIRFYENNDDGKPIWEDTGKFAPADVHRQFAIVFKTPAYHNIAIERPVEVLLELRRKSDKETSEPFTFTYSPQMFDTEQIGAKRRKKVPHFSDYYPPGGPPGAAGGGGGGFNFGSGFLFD
- Method summary: protein-binding microarray (PBM); PBM: ~300 nM protein, 6 mM HEPES pH 7.8, 80 mM KCl, 0.5 mM EDTA, 0.5 mM EGTA, 6% glycerol, 35 ng/ul poly-dIdC, 1% milk, 1 h, room temperature; Ap Aiptasia and Nv Nematostella (sea anemones) / Co Capsaspora / Aq Amphimedon (sponge) / Dm Drosophila / Hu human; RHD is the Rel homology domain; high values mean tight binding
- Condition notes: dsDNA, one strand shown
Value and unit, in that order.

Requested field: binding signal. Item: "CCGATTAACATCAAACTTTTCCCTGATGTTAATCGGGTCTTGATTCGCTTGACGCTGCTG"
3.37 z-score

For "CCGATTAACATCAATAGTTCCCCTGATGTTAATCGGGTCTTGATTCGCTTGACGCTGCTG" then?
6.43 z-score

Also, "CCGATTAACATCAGGGTACTACCTGATGTTAATCGGGTCTTGATTCGCTTGACGCTGCTG" please.
2.34 z-score

Can you check "CCGATTAACATCAGGGGGTTTTATGATGTTAATCGGGTCTTGATTCGCTTGACGCTGCTG" next?
9.65 z-score

Please answer likewise for "CCGATTAACATCAAATTCCCAACTGATGTTAATCGGGTCTTGATTCGCTTGACGCTGCTG"
2.17 z-score

Another: "CCGATTAACATCAGGGACTCACCTGATGTTAATCGGGTCTTGATTCGCTTGACGCTGCTG"
3.77 z-score

Another sequence: "CCGATTAACATCAGGAAAGGCCCTGATGTTAATCGGGTCTTGATTCGCTTGACGCTGCTG"
2.38 z-score

Please answer likewise for "CCGATTAACATCAGGACTTTCCCTGATGTTAATCGGGTCTTGATTCGCTTGACGCTGCTG"
6.5 z-score

Further, for "CCGATTAACATCAAAATTCCCCCTGATGTTAATCGGGTCTTGATTCGCTTGACGCTGCTG" ?
10.1 z-score

Also, "CCGATTAACATCACGGGAGTTCCTGATGTTAATCGGGTCTTGATTCGCTTGACGCTGCTG" please.
3.99 z-score

Param item: "CCGATTAACATCAGAAAATGCCCTGATGTTAATCGGGTCTTGATTCGCTTGACGCTGCTG"
1.93 z-score

// repeat for "CCGATTAACATCACTGGATTCCCTGATGTTAATCGGGTCTTGATTCGCTTGACGCTGCTG" and report
3.07 z-score

What would you report for "CCGATTAACATCAAAATTTCACCTGATGTTAATCGGGTCTTGATTCGCTTGACGCTGCTG" ?
1.14 z-score

Another: "CCGATTAACATCAGATAATTCCCTGATGTTAATCGGGTCTTGATTCGCTTGACGCTGCTG"
5.7 z-score

Same question for "CCGATTAACATCAGGGGGAGTTATGATGTTAATCGGGTCTTGATTCGCTTGACGCTGCTG" please.
6.7 z-score

Now try "CCGATTAACATCAGGGACAACCCTGATGTTAATCGGGTCTTGATTCGCTTGACGCTGCTG" .
3.42 z-score

Param item: "CCGATTAACATCAAAAGGGAATTTGATGTTAATCGGGTCTTGATTCGCTTGACGCTGCTG"
3.2 z-score

Proceed to "CCGATTAACATCAAAAAACCCACTGATGTTAATCGGGTCTTGATTCGCTTGACGCTGCTG"
2.65 z-score
